Target or system: human FAK (Homo sapiens, UniProt Q05397)
Construct: The whole cDNA of human FAK, the N-terminal end of which has been labelled with histidine
Sequence (Q05397 whole entry): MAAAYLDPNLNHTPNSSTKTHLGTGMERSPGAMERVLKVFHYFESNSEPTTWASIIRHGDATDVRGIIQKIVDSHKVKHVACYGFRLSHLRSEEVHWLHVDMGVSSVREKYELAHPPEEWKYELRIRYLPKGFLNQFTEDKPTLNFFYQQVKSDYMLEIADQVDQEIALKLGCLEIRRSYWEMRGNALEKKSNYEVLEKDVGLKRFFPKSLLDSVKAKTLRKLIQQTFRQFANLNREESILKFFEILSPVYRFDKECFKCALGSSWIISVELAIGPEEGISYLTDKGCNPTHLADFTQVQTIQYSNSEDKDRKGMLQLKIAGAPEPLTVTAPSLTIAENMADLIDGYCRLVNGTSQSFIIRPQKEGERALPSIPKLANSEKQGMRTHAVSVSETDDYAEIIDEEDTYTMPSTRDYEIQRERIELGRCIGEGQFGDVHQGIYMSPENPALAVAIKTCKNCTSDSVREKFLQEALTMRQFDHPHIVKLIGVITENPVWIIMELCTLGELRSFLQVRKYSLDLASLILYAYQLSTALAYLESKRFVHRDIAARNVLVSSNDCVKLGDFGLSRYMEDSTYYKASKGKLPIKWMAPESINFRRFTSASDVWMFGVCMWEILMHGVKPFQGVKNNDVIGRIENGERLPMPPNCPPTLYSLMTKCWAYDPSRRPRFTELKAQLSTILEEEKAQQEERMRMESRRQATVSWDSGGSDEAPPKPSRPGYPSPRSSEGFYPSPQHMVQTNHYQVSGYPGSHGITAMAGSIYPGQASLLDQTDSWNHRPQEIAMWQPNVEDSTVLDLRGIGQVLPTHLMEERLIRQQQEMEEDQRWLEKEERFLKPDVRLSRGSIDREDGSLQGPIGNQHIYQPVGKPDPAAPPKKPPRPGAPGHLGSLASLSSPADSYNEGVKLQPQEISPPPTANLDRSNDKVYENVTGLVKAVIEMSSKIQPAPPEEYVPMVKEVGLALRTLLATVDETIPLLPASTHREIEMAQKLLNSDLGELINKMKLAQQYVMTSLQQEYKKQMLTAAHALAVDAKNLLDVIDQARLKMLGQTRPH
Test summary: FAK autophosphorylation inhibition, time-resolved fluorescence test (HTRF)
Measurement setup: autophosphorylation of the enzyme, 15 μM ATP, 1 hour at 37° C.; read-out: FAK IC 50
Endpoint: IC50 (nM)
Entry rule: numbers only, all in nM.

// fetch human FAK (Homo sapiens, UniProt Q05397) IC50 for NC(=O)c1[nH]ccc1-c1ccc(NC(=O)Nc2cc(C(F)(F)F)ccc2F)cc1 [Example 1] 2380
